tested on: opiate receptors; assay type: binding, rat; details: compound 2 μM, 30 min 25° C., four washes; ligand 1 nM; mean ± s.e.m. of three experiments
Result type: Change in Binding (Percent), [^3 H]D-ala^2 -D-leu^5 -enkephalin (%)
I only need the number, in %, no unit after it.

compound="Oc1ccc2c3c1OC1C(=NN=C4CCC5(O)C6Cc7ccc(O)c8c7C5(CCN6CC5CC5)C4O8)CCC4(O)C(C2)N(CC2CC2)CCC314 (stereo not drawn) [Naltrexonazine, naltrexonazine]" measure_unit=% data_value=-97

**Q:** Read the entry NN=C1CCC2(O)C3Cc4ccc(O)c5c4C2(CCN3CC2CC2)C1O5 (stereo not drawn) and write its reported Change in Binding (Percent), [^3 H]D-ala^2 -D-leu^5 -enkephalin.
**A:** -17

**Q:** Read the entry CN1CCC23c4c5ccc(O)c4OC2C(=NN=C2CCC4(O)C6Cc7ccc(O)c8c7C4(CCN6C)C2O8)CCC3(O)C1C5 (stereo not drawn) and write its reported Change in Binding (Percent), [^3 H]D-ala^2 -D-leu^5 -enkephalin.
**A:** -59

----------
system: opiate receptors; type: binding, rat; settings: compound 2 μM, 30 min 25° C., four washes; ligand 1 nM; mean ± s.e.m. of three experiments
Result type: Change in Binding (Percent), [^3 H]D-ala^2 -D-leu^5 -enkephalin

**Q:** Read the entry CN1CCC23c4c5ccc(O)c4OC2C(=NN)CCC3(O)C1C5 (stereo not drawn) [Oxymorphazone, oxymorphazone] and write its reported Change in Binding (Percent), [^3 H]D-ala^2 -D-leu^5 -enkephalin.
**A:** 43% ± 24

**Q:** Read the entry C=CCN1CCC23c4c5ccc(O)c4OC2C(=NN=C2CCC4(O)C6Cc7ccc(O)c8c7C4(CCN6CC=C)C2O8)CCC3(O)C1C5 (stereo not drawn) [Naloxonazine, naloxonazine] and write its reported Change in Binding (Percent), [^3 H]D-ala^2 -D-leu^5 -enkephalin.
**A:** -93% ± 4

**Q:** Read the entry C=CCN1CCC23c4c5ccc(O)c4OC2C(=NN)CCC3(O)C1C5 (stereo not drawn) [Naloxazone, naloxazone] and write its reported Change in Binding (Percent), [^3 H]D-ala^2 -D-leu^5 -enkephalin.
**A:** +15 ± 5%

Attribution: patent US4803208A
